Cited source for all entries: paper PMC8920097

- Tested on: alpha-1-acid-glycoprotein (AGP)
- Run Description: Protein binding on Chiralpak AGP HPLC column
- Experimental Conditions: pH 7.4, Chiralpak AGP
# class assignment by measured log k AGP: low range = under 0.5, mid range = from 0.5 up to 1, high range = 1 and over

Class for CN(CCOc1ccc(NS(C)(=O)=O)cc1)CCc1ccc(NS(C)(=O)=O)cc1 [Dofetilide] ?
mid range

Hey, which category is CN(C)CCCN1c2ccccc2CCc2ccccc21 in, do you know?
mid range

Class? Entry: CCOC(=O)C1=C(C)NC(C)=C(C(=O)OC)C1c1cccc([N+](=O)[O-])c1 (stereo not drawn)
mid range

Please indicate the class for COc1ccc(CCN2CCC(Nc3nc4ccccc4n3Cc3ccc(F)cc3)CC2)cc1 based on its log k AGP.
high range

Which band does CC(C)(C)c1ccc(C(=O)CCCN2CCC(OC(c3ccccc3)c3ccccc3)CC2)cc1 fall in?
high range

Textbook exercise: identify the category of the compound given here, CNCCCN1c2ccccc2CCc2ccccc21 , according to its measured value.
mid range

Hello team, could you let me know which band the following compound falls into: COC(=O)C1=C(C)NC(C)=C(C(=O)OC(C)C)C1c1cccc2nonc12 (stereo not drawn)
high range

GET /class?item= CN(C)CCCN1c2ccccc2Sc2ccc(Cl)cc21
high range

Pick a category. Item: COCC(=O)O[C@]1(CCN(C)CCCc2nc3ccccc3[nH]2)CCc2cc(F)ccc2[C@@H]1C(C)C
high range

Lab log: CC[C@H]1OC(=O)[C@H](C)[C@@H](O[C@H]2C[C@@](C)(OC)[C@@H](O)[C@H](C)O2)[C@H](C)[C@@H](O[C@@H]2O[C@H](C)C[C@H](N(C)C)[C@H]2O)[C@](C)(O)C[C@@H](C)/C(=N\OCOCCOC)[C@H](C)[C@@H](O)[C@]1(C)O — assign log k AGP category
mid range

Which log k AGP band matches CCC1=C(C)CN(C(=O)NCCc2ccc(S(=O)(=O)NC(=O)N[C@H]3CC[C@H](C)CC3)cc2)C1=O [Glimepiride] ?
low range

State the band of CC(C)(C)NC(=O)[C@@H]1C[C@@H]2CCCC[C@@H]2CN1C[C@@H](O)[C@H](Cc1ccccc1)NC(=O)[C@H](CC(N)=O)NC(=O)c1ccc2ccccc2n1
high range

Sort Nc1nnc(-c2cccc(Cl)c2Cl)c(N)n1 into one of the categories.
low range

In plain terms, what class is COCCc1ccc(OCC(O)CNC(C)C)cc1 (stereo not drawn) ?
low range

# classify by log k AGP band: CNCCCC1c2ccccc2C=Cc2ccccc21
high range

Dear colleague, I would appreciate it if you could identify the bin for OCCN1CCN(CCCN2c3ccccc3Sc3ccc(Cl)cc32)CC1 and reply at your convenience.
high range

Pick a category. Item: CN1CCN(CCCN2c3ccccc3Sc3ccc(C(F)(F)F)cc32)CC1
high range

Band assignment needed for COc1cc2nc(N3CCN(C(=O)C4COc5ccccc5O4)CC3)nc(N)c2cc1OC (stereo not drawn) please.
mid range

Looking at O=C1NC(=O)C(c2ccccc2)(c2ccccc2)N1 , which class would you pick?
low range

Class (by measured log k AGP) for COc1ccc2c(c1)c(CC(=O)O)c(C)n2C(=O)c1ccc(Cl)cc1
low range

Determine which band this compound sits in: O=C1Cc2cc(CCN3CCN(c4nsc5ccccc45)CC3)c(Cl)cc2N1
high range

Could you tell me which band CCCCN1CCCC[C@H]1C(=O)Nc1c(C)cccc1C belongs to?
high range

Consider C[C@H]1COc2c(N3CCN(C)CC3)c(F)cc3c(=O)c(C(=O)O)cn1c23 . To which log k AGP class does it belong?
low range

Where would CCCN1C[C@H](CSC)C[C@@H]2c3cccc4[nH]cc(c34)C[C@H]21 [Pergolide] land among the classes by reported log k AGP?
high range

Lab note: which band did CN1C2CCCC1CC(NC(=O)c1nn(C)c3ccccc13)C2 (stereo not drawn) land in?
mid range

Dear colleague, I would appreciate it if you could identify the bin for CC[C@H]1OC(=O)[C@H](C)[C@@H](O[C@H]2C[C@@](C)(OC)[C@@H](O)[C@H](C)O2)[C@H](C)[C@@H](O[C@@H]2O[C@H](C)C[C@H](N(C)C)[C@H]2O)[C@](C)(OC)C[C@@H](C)C(=O)[C@H](C)[C@@H](O)[C@]1(C)O and reply at your convenience.
low range

Could you place C=C[C@H]1C[N@@]2CC[C@H]1C[C@@H]2[C@@H](O)c1ccnc2ccc(OC)cc12 in its proper category? Many thanks.
mid range

# bin label for CC(C)NCC(O)c1ccc(NS(C)(=O)=O)cc1 (stereo not drawn)
low range

For Cc1nccn1CC1CCc2c(c3ccccc3n2C)C1=O (stereo not drawn) , which log k AGP bin applies?
high range

Entry O=C(CCCN1CC=C(n2c(=O)[nH]c3ccccc32)CC1)c1ccc(F)cc1 belongs to which category?
high range
